test: recombinant barcode read abundance after kanamycin selection (control-corrected) (log10(CPM+1)); higher = more efficient recombination; sequences stand for … in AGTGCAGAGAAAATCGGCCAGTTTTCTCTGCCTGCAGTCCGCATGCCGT…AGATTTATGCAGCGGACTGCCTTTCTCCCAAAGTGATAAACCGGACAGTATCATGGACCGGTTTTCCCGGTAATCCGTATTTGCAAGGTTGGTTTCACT; site = the 11-nt target;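 also: IS621 recombinase and bridge RNA in Escherichia coli cells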
Quick rule for you: recombinant barcode read abundance (log10) at 0.1 or higher means 1, lower means 0.

Hi, just wondering whether TTCGGACCTTGGGTTCTAACCTGTTGCGG (site TTCGGACCTCC) shows recombinant barcode read abundance (log10) of 0.1 or higher.
1

Hi, just wondering whether TAGAATGCTTGGGTTCTAACCTGTTGCTT (site TAGAATGCTAA) shows recombinant barcode read abundance (log10) of 0.1 or higher.
1

Hi, just wondering whether TGGCCTGCTTGGGTTCTAACCTGTTGCCT (site TGGCCTGCTAG) shows recombinant barcode read abundance (log10) of 0.1 or higher.
1

Hi, just wondering whether CCGCCCGCTTGGGTTCTAACCTGTTGCCT (site CCGCCGGCTAG) shows recombinant barcode read abundance (log10) of 0.1 or higher.
0

Hi, just wondering whether GTCGAACCTTGGGTTCTAACCTGTTGCTA (site GTCGTAGCTTA) shows recombinant barcode read abundance (log10) of 0.1 or higher.
0

Hi, just wondering whether GAAGAGACTTGGGTTCTAACCTGTTGCCT (site GAAGAGACTAG) shows recombinant barcode read abundance (log10) of 0.1 or higher.
1

Hi, just wondering whether GACCACTCTTGGGTTCTAACCTGTTGCCT (site CACCACTCTAG) shows recombinant barcode read abundance (log10) of 0.1 or higher.
1

Hi, just wondering whether CCGTCTACTTGGGTTCTAACCTGTTGCTA (site CCGTCTACTCA) shows recombinant barcode read abundance (log10) of 0.1 or higher.
1

Hi, just wondering whether CAACCGACTTGGGTTCTAACCTGTTGCCT (site CAACCGACTAG) shows recombinant barcode read abundance (log10) of 0.1 or higher.
1

Hi, just wondering whether CTTAGGGCTTGGGTTCTAACCTGTTGCCT (site CTTTGTGCTAG) shows recombinant barcode read abundance (log10) of 0.1 or higher.
0

Hi, just wondering whether GTAGACCCTTGGGTTCTAACCTGTTGCTG (site GTAGACCCTAC) shows recombinant barcode read abundance (log10) of 0.1 or higher.
1

Hi, just wondering whether TCTTAGACTTGGGTTCTAACCTGTTGCTT (site TGTTGGACTAA) shows recombinant barcode read abundance (log10) of 0.1 or higher.
0

Hi, just wondering whether TCTAAGTCTTGGGTTCTAACCTGTTGCCA (site TCTAAGTCTCG) shows recombinant barcode read abundance (log10) of 0.1 or higher.
1

Hi, just wondering whether ACACAGACTTGGGTTCTAACCTGTTGCGC (site ACACAGACTGC) shows recombinant barcode read abundance (log10) of 0.1 or higher.
1

Hi, just wondering whether ACATTTCCTTGGGTTCTAACCTGTTGCCT (site AAATTTCCTAG) shows recombinant barcode read abundance (log10) of 0.1 or higher.
0

Hi, just wondering whether GTTTGGACTTGGGTTCTAACCTGTTGCAG (site GCTTGGACTAT) shows recombinant barcode read abundance (log10) of 0.1 or higher.
1

Hi, just wondering whether CCGGTGCCTTGGGTTCTAACCTGTTGCCT (site CAGGTGCCTAG) shows recombinant barcode read abundance (log10) of 0.1 or higher.
0

Hi, just wondering whether GTAAATGCTTGGGTTCTAACCTGTTGCCT (site GTAATTGCTAG) shows recombinant barcode read abundance (log10) of 0.1 or higher.
0

Hi, just wondering whether CAAGTGCCTTGGGTTCTAACCTGTTGCCT (site CAAGTTCCTAG) shows recombinant barcode read abundance (log10) of 0.1 or higher.
0

Hi, just wondering whether CTCTCCGCTTGGGTTCTAACCTGTTGCCT (site CTCTCCTCTAG) shows recombinant barcode read abundance (log10) of 0.1 or higher.
0

Hi, just wondering whether ACCAGAGCTTGGGTTCTAACCTGTTGCCT (site ACAAGAGCTAG) shows recombinant barcode read abundance (log10) of 0.1 or higher.
1

Hi, just wondering whether CCGCTGTCTTGGGTTCTAACCTGTTGCCT (site CCTCTGGCTAG) shows recombinant barcode read abundance (log10) of 0.1 or higher.
1

Hi, just wondering whether GCTGGCCCTTGGGTTCTAACCTGTTGCCT (site GGTGGCCCTAG) shows recombinant barcode read abundance (log10) of 0.1 or higher.
0

Hi, just wondering whether GCTAACACTTGGGTTCTAACCTGTTGCCT (site ACTAACACTAG) shows recombinant barcode read abundance (log10) of 0.1 or higher.
1

Hi, just wondering whether TTGGTTCCTTGGGTTCTAACCTGTTGCCT (site TTGGTACCTAG) shows recombinant barcode read abundance (log10) of 0.1 or higher.
1

Hi, just wondering whether TATGTGGCTTGGGTTCTAACCTGTTGCCT (site TATGAGGCTAG) shows recombinant barcode read abundance (log10) of 0.1 or higher.
1

Hi, just wondering whether CCGTAAGCTTGGGTTCTAACCTGTTGCCT (site CCGTAACCTAG) shows recombinant barcode read abundance (log10) of 0.1 or higher.
0

Hi, just wondering whether CGCCTCACTTGGGTTCTAACCTGTTGCCT (site CGCCTCTCTAG) shows recombinant barcode read abundance (log10) of 0.1 or higher.
0

Hi, just wondering whether TCTCCTCCTTGGGTTCTAACCTGTTGCAT (site GAGGTCACTTA) shows recombinant barcode read abundance (log10) of 0.1 or higher.
1

Hi, just wondering whether TTCCTAGCTTGGGTTCTAACCTGTTGCCA (site ATCCTAGCTCG) shows recombinant barcode read abundance (log10) of 0.1 or higher.
1

Hi, just wondering whether AGCCTCCCTTGGGTTCTAACCTGTTGCCT (site AGCCTCCCTAG) shows recombinant barcode read abundance (log10) of 0.1 or higher.
1

Hi, just wondering whether CCAGTAACTTGGGTTCTAACCTGTTGCCT (site CCAGTTACTAG) shows recombinant barcode read abundance (log10) of 0.1 or higher.
0

Hi, just wondering whether ATGCGAGCTTGGGTTCTAACCTGTTGCTG (site ATGCGAGCTCG) shows recombinant barcode read abundance (log10) of 0.1 or higher.
1

Hi, just wondering whether TCCGATTCTTGGGTTCTAACCTGTTGCGT (site GCCTATTCTAC) shows recombinant barcode read abundance (log10) of 0.1 or higher.
1

Hi, just wondering whether GTAATGACTTGGGTTCTAACCTGTTGCCT (site GGAATGACTAG) shows recombinant barcode read abundance (log10) of 0.1 or higher.
1

Hi, just wondering whether ACATAGACTTGGGTTCTAACCTGTTGCGC (site ACAGAGACTGC) shows recombinant barcode read abundance (log10) of 0.1 or higher.
1

Hi, just wondering whether AGATTCCCTTGGGTTCTAACCTGTTGCCG (site AGATTCCCTCG) shows recombinant barcode read abundance (log10) of 0.1 or higher.
1

Hi, just wondering whether CGTGGTCCTTGGGTTCTAACCTGTTGCGT (site CGTGGTCCTAC) shows recombinant barcode read abundance (log10) of 0.1 or higher.
1

Hi, just wondering whether ACGAGCCCTTGGGTTCTAACCTGTTGCCA (site ACGAGCCCTTG) shows recombinant barcode read abundance (log10) of 0.1 or higher.
1

Hi, just wondering whether AGTTGGCCTTGGGTTCTAACCTGTTGCAG (site CTAACTACTAA) shows recombinant barcode read abundance (log10) of 0.1 or higher.
1

Hi, just wondering whether AAGAGTCCTTGGGTTCTAACCTGTTGCGT (site AAGAGTCCTAC) shows recombinant barcode read abundance (log10) of 0.1 or higher.
1

Hi, just wondering whether ACTTAGACTTGGGTTCTAACCTGTTGCCC (site ACTTAGACTAG) shows recombinant barcode read abundance (log10) of 0.1 or higher.
1
